- protocol.details: physchem
- conditions: fassif
measured.attribute: solubility at 2 h
Answers without a unit are incomplete; give the number and then its unit.

Q: Entry CC(C)=CCC[C@](C)(O)[C@H]1CC[C@]2(C)[C@@H]1[C@H](O)C[C@@H]1[C@@]3(C)CC[C@H](O)C(C)(C)[C@@H]3CC[C@]12C [Crystal form A, 20(S)-protopanaxadiol] has what solubility at 2 h?
Ans: 73 µg/mL

----------
- protocol.details: physchem
- conditions: water
measured.attribute: solubility at 2 h (µg/mL)
Give bare numbers, in µg/mL.

Q: // returns reported solubility at 2 h for input CC(C)=CCC[C@](C)(O)[C@H]1CC[C@]2(C)[C@@H]1[C@H](O)C[C@@H]1[C@@]3(C)CC[C@H](O)C(C)(C)[C@@H]3CC[C@]12C [Crystal form D, 20(S)-protopanaxadiol]
Ans: 0.13

----------
- protocol.details: physchem
- conditions: sgf (simulated gastric fluid)
measured.attribute: solubility at 2 h (µg/mL)
Answers are plain numbers, in µg/mL.

Q: Need solubility at 2 h of CC(C)=CCC[C@](C)(O)[C@H]1CC[C@]2(C)[C@@H]1[C@H](O)C[C@@H]1[C@@]3(C)CC[C@H](O)C(C)(C)[C@@H]3CC[C@]12C [Crystal form A, 20(S)-protopanaxadiol] , thanks.
Ans: 21

----------
- protocol.details: physchem
- conditions: water
measured.attribute: solubility at 24 h
In your response, the unit should come after the numeric value.

Q: Endpoint output: solubility at 24 h of CC(C)=CCC[C@](C)(O)[C@H]1CC[C@]2(C)[C@@H]1[C@H](O)C[C@@H]1[C@@]3(C)CC[C@H](O)C(C)(C)[C@@H]3CC[C@]12C [Crystal form A, 20(S)-protopanaxadiol] . Value?
Ans: 0.13 µg/mL

----------
- protocol.details: physchem
- conditions: sgf (simulated gastric fluid)
measured.attribute: solubility at 24 h
Give the figure together with its unit, number first.

Q: Need solubility at 24 h of CC(C)=CCC[C@](C)(O)[C@H]1CC[C@]2(C)[C@@H]1[C@H](O)C[C@@H]1[C@@]3(C)CC[C@H](O)C(C)(C)[C@@H]3CC[C@]12C [Crystal form A, 20(S)-protopanaxadiol] , thanks.
Ans: 11 µg/mL

----------
- protocol.details: physchem
- conditions: ph 1 buffer, pH 1
measured.attribute: solubility at 4 h (µg/mL)
Give bare numbers, in µg/mL.

Q: For the compound CC(C)=CCC[C@](C)(O)[C@H]1CC[C@]2(C)[C@@H]1[C@H](O)C[C@@H]1[C@@]3(C)CC[C@H](O)C(C)(C)[C@@H]3CC[C@]12C [Crystal form A, 20(S)-protopanaxadiol] , what solubility at 4 h is on record?
Ans: 0.11

----------
- protocol.details: physchem
- conditions: sgf (simulated gastric fluid)
measured.attribute: solubility at 1 h

Q: Reported solubility at 1 h, molecule CC(C)=CCC[C@](C)(O)[C@H]1CC[C@]2(C)[C@@H]1[C@H](O)C[C@@H]1[C@@]3(C)CC[C@H](O)C(C)(C)[C@@H]3CC[C@]12C [Crystal form A, 20(S)-protopanaxadiol] : ____
Ans: 20 µg/mL

----------
- protocol.details: physchem
- conditions: fassif
measured.attribute: solubility at 4 h

Q: If you can, please state the reported solubility at 4 h value of CC(C)=CCC[C@](C)(O)[C@H]1CC[C@]2(C)[C@@H]1[C@H](O)C[C@@H]1[C@@]3(C)CC[C@H](O)C(C)(C)[C@@H]3CC[C@]12C [Crystal form A, 20(S)-protopanaxadiol] .
Ans: 0.072 mg/mL
